Biological target: T1, biotin-labeled mouse ADM (mouse, not fully specified; biotin label (named mouse ADM-C-biotin in Example 1.4; position of the biotin not stated for the other lots))
T1 construct: Synthetic peptide; also called mouse ADM-C-biotin; mADM-Biotin
T1 peptide: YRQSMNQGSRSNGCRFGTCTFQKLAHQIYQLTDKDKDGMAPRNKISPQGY
Assay: BLI (Octet RED96e), as in Example 3
Method: The affinity of antibodies 2004hz00, 2004hz97, and 2004hz99 for biotin-labeled human and mouse ADM (human ADM Cat. No. 894757, mouse ADM Cat. No. 894758, synthesized by GLBiochem) was determined by adopting Octet RED96e (Fortebio). […] The equilibrium dissociation constants (KD) of the antibodies were calculated by measuring the association rates (Kon) and the dissociation rates (Koff) of the antigen-antibody in a 1:1 binding manner by adopting the Data Analysis 12.0 software from Fortebio. […]

binder: Ab2004.Am38 (IgG1 antibody) (antibody, V domains shown, Expressed in CHO cells, human IgG1/kappa) VH: QVQLVQSGAEVKKPGASVKVSCKASGYTFTSYGISWVRQAPGQGLEWMGWISPYTGKTNYAQKLQGRVTMTRDTSTSTAYMELRSLRSDDTAVYYCAREGRWGGSFNIWGQGTMVTVSS VL: DIQMTQSPSSLSASVGDRVTITCRASQGISSYLAWYQQKPGKAPKLLIYDTSDLDTGVPSRFSGSGSGTDFTFTISSLQPEDIATYYCQQYDNLPLTFGGGTKVEIKR
koff: 0.000342 s⁻¹
